Tgt: T1, Human biotinylated OX40-His monomer (human, UniProt P43489 29-216, limits assumed, biotinylated)
T1 construct: Bought from Acro Biosystems; also called biotin-OX-40 monomer; not shown: His tag
T1 sequence (looked up): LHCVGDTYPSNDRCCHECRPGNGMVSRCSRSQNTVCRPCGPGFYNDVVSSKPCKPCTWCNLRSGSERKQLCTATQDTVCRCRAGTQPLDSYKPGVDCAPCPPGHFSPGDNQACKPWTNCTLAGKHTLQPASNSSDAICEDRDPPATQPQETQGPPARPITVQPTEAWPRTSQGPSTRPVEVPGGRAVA
Protocol Summary: MSD-SET, biotinylated OX40-His monomer with Fab
In this section, each of the binders is paired with its reported Kd.

{"columns": ["Binder", "Unit Abbreviation", "Kd"],
 "data": [
  ["ADI-25652, Fab (Fab, V domains shown) VH: QVQLVESGGGVVQPGRSLRLSCAASGFTFVSYNMHWVRQAPGKGLEWVAVIAYDGSVKYYADSVKGRFTISRDNSKNTLYLQMNSLRAEDTAVYYCARGRPWYSETGTSAFDIWGQGTMVTVSS VL: DIQMTQSPSSLSASVGDRVTITCQASQDISNYLNWYQQKPGKAPKLLIYDASNLETGVPSRFSGSGSGTDFTFTISSLQPEDIATYYCQQSDHYPTFGGGTKVEIKR", "nM", 0.15],
  ["ADI-25651, Fab (Fab, V domains shown) VH: QVQLVESGGGVVQPGRSLRLSCAASGFTFSSRNMHWVRQAPGKGLEWVAVIAYDGSLKYYADSVKGRFTISRDNSKNTLYLQMNSLRAEDTAVYYCARGRPWYSETGTSAFDIWGQGTMVTVSS VL: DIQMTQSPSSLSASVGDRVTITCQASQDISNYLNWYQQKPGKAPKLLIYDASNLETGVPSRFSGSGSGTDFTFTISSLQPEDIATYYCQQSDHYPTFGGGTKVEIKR", "nM", 0.17],
  ["ADI-23515, Fab (Fab, V domains shown) VH: QVQLQESGPGLVKPSQTLSLTCTVSGGSIRSGAYYWSWIRQHPGKGLEWIGYIYYDGQTYYNPSLKSRVTISVDTSKNQFSLKLSSVTAADTAVYYCARDVGYPHYYGMDVWGQGTTVTVSS VL: EIVLTQSPGTLSLSPGERATLSCRASQSVSSSYLAWYQQKPGQAPRLLIYGASSRATGIPDRFSGSGSGTDFTLTISRLEPEDFAVYYCQQSERSPFTFGGGTKVEIKR", "nM", 0.16]
]}
